In this section we review reported pA50, cAMP values for a set of binders.
Target: T1, human CRH receptor type 2 (human, UniProt Q13324 1-411)
T1 sequence (looked up): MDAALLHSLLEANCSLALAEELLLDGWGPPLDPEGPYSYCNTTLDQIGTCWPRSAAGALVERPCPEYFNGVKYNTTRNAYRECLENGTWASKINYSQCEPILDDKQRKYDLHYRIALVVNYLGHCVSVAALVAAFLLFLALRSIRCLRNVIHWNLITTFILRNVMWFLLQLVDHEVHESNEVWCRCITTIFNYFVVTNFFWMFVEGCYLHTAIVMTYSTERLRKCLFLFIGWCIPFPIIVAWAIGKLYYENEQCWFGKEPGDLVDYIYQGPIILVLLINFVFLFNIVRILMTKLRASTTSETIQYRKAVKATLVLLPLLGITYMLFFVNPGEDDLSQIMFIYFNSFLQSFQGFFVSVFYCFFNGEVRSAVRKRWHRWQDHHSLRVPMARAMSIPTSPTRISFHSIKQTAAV
Test: cell-based or functional assay
No end group written: not given here.

Past entries and their recorded results:
Entry under test: TKFTLSLDVPTNIMNLLFNICKAKNLRAQAAANAHLMAQI-NH2 [Cys-variant CRHR2 peptide agonist, SEQ ID NO: 22] . Its pA50, cAMP was 9.17 -log M

Entry under test: TKFTLSLDVPTNIMNLLFNIACAKNLRAQAAANAHLMAQI (NES-PEG (about 20 kDa) on Cys 22; C-terminal amide) [Pegylated Cys-variant CRHR2 peptide agonist (NES linker, PEG about 20 kDa), SEQ ID NO: 76] . Its pA50, cAMP was 6.84 -log M

Entry under test: TKFTLSLDVPTNICNLLFNIAKAKNLRAQAAANAHLMAQI (NES-PEG (about 20 kDa) on Cys 14; C-terminal amide) [Pegylated Cys-variant CRHR2 peptide agonist (NES linker, PEG about 20 kDa), SEQ ID NO: 68] . Its pA50, cAMP was ~6.96 -log M

Entry under test: TKFTLSLDVCTNIMNLLFNIAKAKNLRAQAAANAHLMAQI-NH2 [Cys-variant CRHR2 peptide agonist, SEQ ID NO: 11] . Its pA50, cAMP was 8.76 -log M

Entry under test: TKFCLSLDVPTNIMNLLFNIAKAKNLRAQAAANAHLMAQI-NH2 [Cys-variant CRHR2 peptide agonist, SEQ ID NO: 5] . Its pA50, cAMP was 8.93 -log M

More entries:
Entry under test: TKFTLSLDVPTNIMNLLFNCAKAKNLRAQAAANAHLMAQI (NES-PEG (about 20 kDa) on Cys 20; C-terminal amide) [Pegylated Cys-variant CRHR2 peptide agonist (NES linker, PEG about 20 kDa), SEQ ID NO: 74] . Its pA50, cAMP was ~7.33 -log M
